This collection of values is drawn from ChEMBL document CHEMBL1151705.

- System: Staphylococcus aureus
- EXPERIMENT_NOTES: Antimicrobial activity against drug-susceptible Staphylococcus aureus 2 after 20 hrs by agar dilution method
- Format: functional
- EXPERIMENTAL_SETUP: Staphylococcus aureus, 20 h; read-out: MIC
MEASURE: MIC (µg/mL)

| COMPOUND | MIC (µg/mL) |
| --- | --- |
| CCOC(=O)[C@H]1[C@H](C)O[C@@H](O[C@H]2[C@H](N(C)C)[C@@H](O)[C@H](O[C@H]3[C@@H](CC=O)C[C@@H](C)[C@@H](O)CN(CCCCc4ccccc4)CCC[C@@H](C)OC(=O)C[C@@H](OC(=O)CC)[C@@H]3OC)O[C@@H]2C)C[C@@]1(C)OC(C)=O | 1 |
| CCOC(=O)[C@H]1[C@H](C)O[C@@H](O[C@H]2[C@H](N(C)C)[C@@H](O)[C@H](O[C@H]3[C@@H](CC=O)C[C@@H](C)[C@@H](O)CN(C)CCC[C@H](C/C=C/c4cccnc4)OC(=O)C[C@@H](OC(=O)CC)[C@@H]3OC)O[C@@H]2C)C[C@@]1(C)O | 1 |
| CCOC(=O)[C@H]1[C@H](C)O[C@@H](O[C@H]2[C@H](N(C)C)[C@@H](O)[C@H](O[C@H]3[C@@H](CC=O)C[C@@H](C)[C@@H](OC(C)=O)CN(CCCCc4ccccc4)CC[C@@H](C)OC(=O)C[C@@H](OC(=O)CC)[C@@H]3OC)O[C@@H]2C)C[C@@]1(C)OC(C)=O | 1 |
| CCOC(=O)[C@H]1[C@H](C)O[C@@H](O[C@H]2[C@H](N(C)C)[C@@H](O)[C@H](O[C@H]3[C@@H](CC=O)C[C@@H](C)[C@@H](O)CN(C)CC(/C=C/Cc4cncc5ccccc45)CCOC(=O)C[C@@H](OC(=O)CC)[C@@H]3OC)O[C@@H]2C)C[C@@]1(C)O (some centres undefined) | 0.5 |
